Below, each entry is listed with its recorded inhibition.
systemUnderTest: UniProt:P29274
Sequence (P29274 whole entry): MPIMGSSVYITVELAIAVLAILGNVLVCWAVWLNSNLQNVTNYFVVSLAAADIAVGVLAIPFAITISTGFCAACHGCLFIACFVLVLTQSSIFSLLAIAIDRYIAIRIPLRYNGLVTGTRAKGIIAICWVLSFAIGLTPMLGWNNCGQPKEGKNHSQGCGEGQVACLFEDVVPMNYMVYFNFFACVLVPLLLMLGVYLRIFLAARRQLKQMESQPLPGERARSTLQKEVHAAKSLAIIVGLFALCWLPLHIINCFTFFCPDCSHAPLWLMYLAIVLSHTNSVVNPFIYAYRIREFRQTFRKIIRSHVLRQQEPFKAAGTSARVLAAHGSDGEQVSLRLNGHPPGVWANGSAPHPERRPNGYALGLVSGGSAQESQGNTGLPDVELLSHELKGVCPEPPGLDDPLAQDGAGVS
assayDetails: Displacement of [3H]-ZM-241385 from human adenosine receptor A2a expressed in HEK293 cell membranes at 0.1 uM after 90 mins by liquid scintillation counting method relative to control
The answer consists of two parts: a number and, after it, its unit.

CCCn1c(=O)c2[nH]c(-c3ccc(OCC4CC(=O)N(c5cccc(F)c5)C4)nc3)nc2n(CCC)c1=O (stereo not drawn)	85%
CCCn1c(=O)c2[nH]c(-c3cnn(CC4CC(=O)N(c5ccc(OC)cc5)C4)c3)nc2n(CC)c1=O (stereo not drawn)	21%
CCCn1c(=O)c2[nH]c(-c3cnn(CC4CC(=O)N(c5cccc(C(F)(F)F)c5)C4)c3)nc2n(CCC)c1=O (stereo not drawn)	48%
CCCn1c(=O)c2[nH]c(-c3cc(OCC4CC(=O)N(c5cccc(C(F)(F)F)c5)C4)no3)nc2n(CCC)c1=O (stereo not drawn)	0%
CCCn1c(=O)c2[nH]c(-c3cnn(CCC4CC(=O)N(c5cccc(C(F)(F)F)c5)C4)c3)nc2n(CCC)c1=O (stereo not drawn)	65%

**Q:** I would be grateful if you could share the reported inhibition for CCCn1c(=O)c2[nH]c(-c3cnn(CC4CC(=O)N(c5ccc(C(F)(F)F)cc5)C4)c3)nc2n(CC)c1=O (stereo not drawn) .
**A:** 4%

**Q:** State the recorded inhibition for this entry: CCCn1c(=O)c2[nH]c(-c3cnn(CC4CC(=O)N(c5cccc(C)c5)C4)c3)nc2n(CCC)c1=O (stereo not drawn)
**A:** 0%

**Q:** Which inhibition is reported for this compound? CCCn1c(=O)c2[nH]c(-c3cnn(CC4CC(=O)N(c5ccc(OC)cc5)C4)c3)nc2n(CCC)c1=O (stereo not drawn)
**A:** 51%

====

In this section, each of the compounds is paired with its reported AUC(0-t).
assayDetails: AUC(0 to t) in C57BL/6J mouse at 10 mg/kg, po via gavage by LC-MS/MS analysis
Assay type: ADME, organism-based
testSettings: in vivo
Number only, in µM·h; omit the unit.

CCCn1c(=O)c2[nH]c(-c3cnn(CC4CC(=O)N(c5ccc(C(F)(F)F)cc5)C4)c3)nc2n(CC)c1=O (stereo not drawn)	2.9
CCCn1c(=O)c2[nH]c(-c3cnn(CC(=O)N4CCN(c5cccc(C(F)(F)F)c5)CC4)c3)nc2n(CCC)c1=O	51

Turning now to a further compound:
**Q:** Form field: reported AUC(0-t) of CCCn1c(=O)c2[nH]c(-c3cnn(CC4CC(=O)N(c5ccc(C(F)(F)F)cc5)C4)c3)nc2n(CCC)c1=O (stereo not drawn)
**A:** 21

====

Some compounds, each annotated with its measured inhibition.
systemUnderTest: Adenosine receptor A3 (Homo sapiens) (UniProt P0DMS8)
Sequence (P0DMS8 whole entry): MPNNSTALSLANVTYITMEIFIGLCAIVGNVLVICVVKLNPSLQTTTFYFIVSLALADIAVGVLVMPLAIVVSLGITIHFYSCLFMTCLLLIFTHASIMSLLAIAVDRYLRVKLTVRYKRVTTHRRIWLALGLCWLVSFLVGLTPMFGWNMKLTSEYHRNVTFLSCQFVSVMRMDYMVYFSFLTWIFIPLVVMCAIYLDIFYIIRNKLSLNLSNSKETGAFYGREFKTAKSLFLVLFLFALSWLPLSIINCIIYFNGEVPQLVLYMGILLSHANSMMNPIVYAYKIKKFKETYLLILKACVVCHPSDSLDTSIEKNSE
assayDetails: Displacement of [3H]-HEM-ADO from human adenosine receptor A3 expressed in HEK293 cell membranes at 1 uM after 90 mins by liquid scintillation counting method relative to control
Give just the numeric value; % need not be written.

Use these answered entries as a reference point.
CCCn1c(=O)c2[nH]c(-c3cnn(CC4CCN(c5cccc(OC)c5)C4)c3)nc2n(CCC)c1=O (stereo unspecified)	12
CCCn1c(=O)c2[nH]c(-c3cnn(CC(=O)N4CCN(c5cccc(C(F)(F)F)c5)CC4)c3)nc2n(CCC)c1=O	0
CCCn1c(=O)c2[nH]c(-c3ccc(OCC4CC(=O)N(c5cccc(C(F)(F)F)c5)C4)nc3)nc2n(CCC)c1=O (stereo unspecified)	26
CCCn1c(=O)c2[nH]c(-c3cc(OCC4CC(=O)N(c5cccc(C(F)(F)F)c5)C4)no3)nc2n(CCC)c1=O (stereo unspecified)	5
CCCn1c(=O)c2[nH]c(-c3cnn(CC(=O)N4CCN(c5ccc(F)cc5F)CC4)c3)nc2n(CCC)c1=O	0
CCCn1c(=O)c2[nH]c(-c3cnn(CC4CC(=O)N(c5cccc(OC(F)(F)F)c5)C4)c3)nc2n(CC)c1=O (stereo unspecified)	3
CCCn1c(=O)c2[nH]c(-c3ccc(OCC4CC(=O)N(c5ccc(F)cc5)C4)cc3)nc2n(CCC)c1=O (stereo unspecified)	44
CCCn1c(=O)c2[nH]c(-c3cnn(CC(=O)N4CCN(c5ccc(C)cc5)CC4)c3)nc2n(CCC)c1=O	11
CCCn1c(=O)c2[nH]c(-c3cnn(CC4CC(=O)N(c5ccc(OC)cc5)C4)c3)nc2n(CC)c1=O (stereo unspecified)	14
CCCn1c(=O)c2[nH]c(-c3cnn(CC4CC(=O)N(c5cccc(F)c5)C4)c3)nc2n(CCC)c1=O (stereo unspecified)	17

**Q:** Value wanted: inhibition (Adenosine receptor A3 (Homo sapiens) (UniProt P0DMS8)) of entry CCCn1c(=O)c2[nH]c(-c3ccc(OCC4CC(=O)N(c5ccc(F)cc5)C4)nc3)nc2n(CCC)c1=O (stereo unspecified)
**A:** 53

**Q:** So what inhibition did CCCn1c(=O)c2[nH]c(-c3cnn(CC4CCN(c5cccc(C(F)(F)F)c5)C4)c3)nc2n(CCC)c1=O (stereo unspecified) get with Adenosine receptor A3 (Homo sapiens) (UniProt P0DMS8)?
**A:** 2

**Q:** What inhibition appears in the records for this compound with Adenosine receptor A3 (Homo sapiens) (UniProt P0DMS8)? CCCn1c(=O)c2[nH]c(-c3cnn(C(C)C4CC(=O)N(c5cccc(C(F)(F)F)c5)C4)c3)nc2n(CCC)c1=O (stereo unspecified)
**A:** 18

**Q:** Quick check: inhibition on Adenosine receptor A3 (Homo sapiens) (UniProt P0DMS8), item CCCn1c(=O)c2[nH]c(-c3cc(OCC4CC(=O)N(c5ccc(C(F)(F)F)cc5)C4)no3)nc2n(CCC)c1=O (stereo unspecified) ?
**A:** 0

**Q:** # returns recorded inhibition (system: Adenosine receptor A3 (Homo sapiens) (UniProt P0DMS8)) for CCCn1c(=O)c2[nH]c(-c3ccc(OCC4CC(=O)N(c5cccc(C(F)(F)F)c5)C4)cc3)nc2n(CCC)c1=O (stereo unspecified)
**A:** 13

**Q:** Write down the reported inhibition of CCCn1c(=O)c2[nH]c(-c3cnn(CC4CC(=O)N(c5ccc(OC(F)(F)F)cc5)C4)c3)nc2n(CCC)c1=O (stereo unspecified) , test system: Adenosine receptor A3 (Homo sapiens) (UniProt P0DMS8).
**A:** 0
